test system: A498 renal; test: NCI-60 one-dose screen, 48 h; conditions: 10 µM unless noted
Compounds without any hit were thinned out: in the full panel of roughly 83,000, 20% have a hit. Activity calls are given as the source filed them. The calls were made as follows: active = growth percent below 10; inactive = the rest.
Form entry, call: pick from label 1 (active), label 0 (inactive)

Worked examples follow.
>>> assigned_class("COc1cc(C2CC(c3ccc(N(C)C)cc3)=NN2C(C)=O)cc(OC)c1OC (centres undefined)")
"label 1"
>>> assigned_class("CC(C)OC(=O)Nc1ccc(-c2nc(-c3cccc(OCCN4CCOCC4)c3)c(-c3ccnc(Br)c3)[nH]2)cc1")
"label 1"
>>> assigned_class("Cc1ccc(S(=O)(=O)N/N=C/C2(c3ccccc3)CC2)cc1")
"label 0"
>>> assigned_class("O=C1CCC(C(=O)NCCNCCNC(=O)C2CCC(=O)N2)N1 (centres undefined)")
"label 0"
>>> assigned_class("CC1Cc2c(ncn3c(-c4ccc(F)cc4)nnc23)N(C)c2ccccc21 (centres undefined)")
"label 0"

Assay result, entry COc1ccc2c(c1)/C(=C/c1sc(=S)n(Cc3ccco3)c1O)C=N2 — outcome?
label 1

Assay result, entry Cc1ccc(C2CC(c3ccc(Nc4ccnc5cc(Cl)ccc45)cc3)=NN2C=O)cc1 (centres undefined) — outcome?
label 0

Assay result, entry CCCCCCCCCCCCCCCCCCOc1ccc(CC(=O)OCC[N+](C)(C)C)cc1 — outcome?
label 0

Assay result, entry CN1CCN(CC(=O)N2c3cccc4cccc(c34)N(C(=O)CN3CCN(C)CC3)C2c2cn(-c3ccccc3)nc2-c2cccc([N+](=O)[O-])c2)CC1 — outcome?
label 0

Assay result, entry O=S(=O)(Nc1ccc(-c2nc(-c3cccc(OCCN4CCOCC4)c3)c(-c3ccnc(Br)c3)[nH]2)cc1)c1ccccc1 — outcome?
label 0

* * *

Reported growth values for the following compounds.
tested on: NCI/ADR-RES ovarian; experiment: NCI-60 one-dose screen, 48 h (100 = growth as untreated, 0 = no growth, -100 = all killed); conditions: 10 µM unless noted
The panel holds about 83,000 compounds, 20% with a hit somewhere; the sample as a whole holds those more often.
// note: answer is a bare numeric in %

Guide cases for growth, answers given:
>>> result("C=C(C)[C@@H]1CC[C@]2(N=C=O)CC[C@]3(C)[C@H](CC[C@@H]4[C@@]5(C)Cc6c([nH]c7ccccc67)C(C)(C)[C@@H]5CC[C@]43C)[C@@H]12")
83.5
>>> result("N[C@@H](Cc1ccccc1)[C@@H](O)C(=O)NCc1ccc(F)cc1")
110
>>> result("c1cc(-c2nnc(SSc3ncnc4nc[nH]c34)o2)ccn1")
27.3
>>> result("CCc1ccc2nc(NC(=O)Cc3csc(NC(=O)c4ccco4)n3)sc2c1")
77.5
>>> result("NS(=O)(=O)c1ccc(-n2nc(-c3ccc(Cl)cc3)c3ccccc3c2=O)cc1")
86.2

# compound CCOC(=O)c1c2c(n(-c3ccc(C#N)cc3)c1-c1ccccc1)C=CCC2 ; its growth = 94

# compound CCCCOc1nc2c(C)cccc2cc1-c1cc(-c2ccc(Cl)cc2)nc(-c2ccc(Cl)cc2)c1 ; its growth = 108

# compound N#C/C(=C\c1cccc2cnccc12)n1nnc2cccc(F)c21 ; its growth = 23.8

# compound COc1cccc(-c2nn(-c3ccccc3)cc2-c2ccnc(N3CCOCC3)c2)c1 ; its growth = 77.5

# compound O=C(Nc1nc2ccc(F)cc2s1)c1cccnc1Nc1ccc(Cl)cc1Cl ; its growth = 1.58

# compound Cn1cc(-c2cc3ncnc(Nc4ccc(CC(=O)Nc5cc(C(C)(C)C)on5)cc4)c3s2)cn1 ; its growth = 60.6

# compound COC(=O)c1ccc2[nH]c(O)c(C(=Nc3ccc(N(C)C(=O)CN4CCN(C)CC4)cc3)c3ccccc3)c2c1 ; its growth = 83.8

* * *

test system: CAKI-1 renal; experiment: NCI-60 one-dose screen, 48 h (100 = growth as untreated, 0 = no growth, -100 = all killed); conditions: 10 µM unless noted
Compounds without any hit were thinned out: in the full panel of roughly 83,000, 20% have a hit.
Reported growth values for the following compounds.
// note: answer is a bare numeric in %

>>> result("O=C(CCCCCCSc1nc(-c2ccccc2)cc(-c2ccccc2)n1)NO")
13.7
>>> result("COc1nc2ccccc2cc1-c1nc2c(cnn2-c2ccc(Br)cc2)c(=O)[nH]1")
29.4
>>> result("CN1CCN(c2ccc(-c3cnc4c(-c5csc6ccccc56)cnn4c3)cc2)CC1")
-13.9
>>> result("O=C(O)CCC/C=C\\C[C@H]1C=CC(=O)/C1=C/C[C@@H](O)CCc1cccc(C(F)(F)F)c1")
12.6

// growth (CAKI-1 renal) for COc1ccc2sc3c(NCCCN(C)C)nc4ccccc4c3c(=O)c2c1 = 63

* * *

system: NCI-H460 lung; experiment: NCI-60 one-dose screen, 48 h; conditions: 10 µM unless noted
About 83,000 compounds went through this panel and 20% of them were active in at least one assay; those are over-represented in the sample as a whole. Activity calls are given as the source filed them. The calls were made as follows: active = growth percent below 10; inactive = the rest.
Form entry, call: pick from 1 = active, 0 = inactive

>>> assigned_class("Cc1cc(-c2cc(C)c(N)cc2C)c(C)cc1N")
0

Assay result, entry NC(=O)C1(Nc2ccc(Br)cc2)CCCC1 — outcome?
0

Assay result, entry C=CCc1cc(C)ccc1NC(C(=O)NCC(=O)OC)c1ccccc1 (stereo not given) — outcome?
0

Assay result, entry O=C(O)c1cn(C2CC2)c2cc(N3CCN(C(=O)Nc4nc(-c5ccc(Cl)cc5)cs4)CC3)c(F)cc2c1=O — outcome?
1

Assay result, entry COc1ccc(S(=O)(=O)n2c3ccccc3n3ncc(-c4nnc(C)o4)c23)cc1 — outcome?
0

Assay result, entry CN(C)CCN1CCN(c2ncccc2C2Nc3ccccc3-n3cccc32)CC1 (stereo not given) — outcome?
0

Assay result, entry Cc1ccc(C(=O)NN2C(=O)CSC2c2cccc([N+](=O)[O-])c2)cn1 (stereo not given) — outcome?
0

Assay result, entry O=C(CCCCCCSc1nc(-c2ccccc2)cc(-c2ccccc2)n1)NO — outcome?
0

Assay result, entry COc1cc(Nc2cn[nH]c2-c2ccc(Cl)cc2)cc(OC)c1OC — outcome?
0

* * *

Reported growth values for the following molecules.
system: BT-549 breast; assay: NCI-60 one-dose screen, 48 h (100 = growth as untreated, 0 = no growth, -100 = all killed); settings: 10 µM unless noted
This is part of a sample that, as a whole, favours compounds with a hit. Of some 83,000 tested, about 20% had one in any assay. The source made the active and inactive calls. The calls were made as follows: active = growth percent below 10; inactive = the rest.

# molecule CC(=O)OC[C@H]1OC(Sc2sc(C(=O)c3ccc(Cl)cc3)c(N)c2-c2nc3ccccc3s2)[C@H](OC(C)=O)[C@@H](OC(C)=O)[C@@H]1OC(C)=O (some centres undefined) ; its growth = 98.5% (inactive)

# molecule CCOC(=O)Cn1c(=O)c2c(c3ccccc3n2C)n2nnc(-c3ccccc3)c12 ; its growth = 114% (inactive)

# molecule COc1ccc(/C=C/c2c(C(=O)/C=C/c3ccc(C(F)(F)F)cc3)c(C)nc3ccccc23)cc1 ; its growth = -14.2% (active)

# molecule COc1ccc(CN2c3ccccc3CCc3ccccc32)cc1F ; its growth = 54% (inactive)

* * *

Reported growth values for the following molecules.
system: SK-MEL-5 melanoma; experiment: NCI-60 one-dose screen, 48 h (100 = growth as untreated, 0 = no growth, -100 = all killed); settings: 10 µM unless noted
Compounds without any hit were thinned out: in the full panel of roughly 83,000, 20% have a hit.
// note: answer is a bare numeric in %

Guide cases for growth, answers given:
>>> result("Cc1ccc2nc(NC(=O)CSc3nc(Cl)c(C#N)c(-c4ccccc4)n3)sc2c1")
102
>>> result("Fc1cc2c(cc1Cl)N(c1ncnc3ccc(-c4cnc5cnccn45)cc13)CC2")
95.3
>>> result("O=C(CSc1nc2ccccc2[nH]1)Nc1cccc(Cl)c1")
104
>>> result("Cc1cc(Cl)ccc1NS(=O)(=O)c1ccc(-c2cnc(C3CC3)o2)cc1")
20.4
>>> result("COc1ccc2sc3c(NCCCNCCO)nc4ccccc4c3c(=O)c2c1")
81.4
>>> result("COc1cc2cc(Oc3ccc(NC(=O)Nc4ccc(F)c(C(F)(F)F)c4)cc3)c(C)nc2cc1OCCN1CCOCC1")
-37.6

// growth (SK-MEL-5 melanoma) for CC(=O)OC[C@H]1OC(Sc2sc(C(=O)c3ccc(C)cc3)c(N)c2-c2nc3ccccc3s2)[C@H](OC(C)=O)[C@@H](OC(C)=O)[C@@H]1OC(C)=O (stereo not given in full) = 45.5

// growth (SK-MEL-5 melanoma) for Cc1oc2nc[nH]c(=O)c2c1C(=O)/C=C/c1ccc(Br)cc1 = 8.55

// growth (SK-MEL-5 melanoma) for COC1=C(C)C(=O)c2c(c(CCCl)c3n2CCC3OC(C)=O)C1=O (stereo not given) = -66.7

// growth (SK-MEL-5 melanoma) for COc1ccc2[nH]c(-c3ccccc3)c(/C=C(\C#N)S(=O)(=O)c3ccccc3)c2c1 = 14.9
